- System: MCF-7
- ASSAY DETAILS: MTT cytotoxicity assay
- Type: cell-based
- TEST PARAMETERS: Homo sapiens, MCF7, 72 h, read-out: IC50 MCF-7

STRUCTURE AS SMILES: C#Cc1cccc(Nc2ncnc3cc(OCCOC)c(OCCOC)cc23)c1
UNITS: µM
IC50: 8.2

====

- Tested on: A549
- ASSAY DETAILS: MTT cytotoxicity assay
- Assay type: cell-based
- TEST PARAMETERS: Homo sapiens, 72 h, mean of three separate experiments
pIC50: −log10 of the molar value.
ASSAY ENDPOINT: pIC50

STRUCTURE AS SMILES: C[C@@H]1O[C@@H](OC[C@H]2O[C@@H](Oc3c(-c4ccc(O)c(O)c4)oc4cc(O)cc(O)c4c3=O)[C@H](O)[C@@H](O)[C@@H]2O)[C@H](O)[C@H](O)[C@H]1O
TEST TARGET: A549
RECORDED RESULT: 5.06

====

- TEST TARGET: VEGFR-2 (Homo sapiens)
- Sequence (P35968 20-1356): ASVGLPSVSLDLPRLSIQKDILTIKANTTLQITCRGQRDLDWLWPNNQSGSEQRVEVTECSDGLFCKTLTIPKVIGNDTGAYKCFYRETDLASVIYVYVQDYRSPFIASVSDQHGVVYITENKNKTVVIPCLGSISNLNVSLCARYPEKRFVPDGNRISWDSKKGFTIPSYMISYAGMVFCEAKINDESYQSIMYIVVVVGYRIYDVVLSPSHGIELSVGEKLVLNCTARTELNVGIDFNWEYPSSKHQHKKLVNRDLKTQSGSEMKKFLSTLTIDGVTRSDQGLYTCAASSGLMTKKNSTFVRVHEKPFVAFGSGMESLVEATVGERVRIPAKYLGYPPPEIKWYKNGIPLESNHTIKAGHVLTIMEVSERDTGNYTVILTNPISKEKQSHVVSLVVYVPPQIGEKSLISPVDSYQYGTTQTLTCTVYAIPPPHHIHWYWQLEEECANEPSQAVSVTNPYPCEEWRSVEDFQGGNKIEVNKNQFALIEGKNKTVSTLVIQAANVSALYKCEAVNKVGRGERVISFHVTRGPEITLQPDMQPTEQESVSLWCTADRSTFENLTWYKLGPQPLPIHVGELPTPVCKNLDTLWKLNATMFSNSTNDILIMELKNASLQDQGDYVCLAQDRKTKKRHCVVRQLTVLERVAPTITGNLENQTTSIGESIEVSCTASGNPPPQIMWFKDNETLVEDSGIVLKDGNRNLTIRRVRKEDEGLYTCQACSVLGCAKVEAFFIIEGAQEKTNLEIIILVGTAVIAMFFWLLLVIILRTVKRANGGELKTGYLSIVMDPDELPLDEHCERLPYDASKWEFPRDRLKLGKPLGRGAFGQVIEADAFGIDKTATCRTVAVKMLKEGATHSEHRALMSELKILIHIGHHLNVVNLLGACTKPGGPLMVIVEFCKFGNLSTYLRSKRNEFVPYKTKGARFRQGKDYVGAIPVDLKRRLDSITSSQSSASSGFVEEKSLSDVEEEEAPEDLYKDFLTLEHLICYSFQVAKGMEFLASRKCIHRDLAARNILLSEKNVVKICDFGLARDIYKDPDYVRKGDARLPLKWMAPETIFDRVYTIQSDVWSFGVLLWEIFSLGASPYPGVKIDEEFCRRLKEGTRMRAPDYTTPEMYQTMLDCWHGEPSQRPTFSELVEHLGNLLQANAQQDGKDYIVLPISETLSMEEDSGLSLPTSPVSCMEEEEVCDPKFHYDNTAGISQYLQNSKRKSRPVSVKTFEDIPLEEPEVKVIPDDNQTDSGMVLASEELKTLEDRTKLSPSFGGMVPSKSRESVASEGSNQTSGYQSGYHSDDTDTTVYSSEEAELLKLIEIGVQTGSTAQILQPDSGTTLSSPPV
ASSAY ENDPOINT: IC50 (nM)

COMPOUND: C[C@@H]1O[C@@H](OC[C@H]2O[C@@H](Oc3c(-c4ccc(O)c(O)c4)oc4cc(O)cc(O)c4c3=O)[C@H](O)[C@@H](O)[C@@H]2O)[C@H](O)[C@H](O)[C@H]1O [Rutin (3), rutin]
TEST TARGET: VEGFR-2 (Homo sapiens)
ASSAY ENDPOINT: IC50
RECORDED RESULT: 1180
